Answer each item with its documented pKi.
testedSystem: human ALK5 (recombinant TGF β1 N-term GST-tagged, 80-end) (Homo sapiens, UniProt P36897)
Construct: human ALK5 (recombinant TGF β1 N-term GST-tagged, 80-end); GST (N)
Sequence (P36897 80-503 limits assumed): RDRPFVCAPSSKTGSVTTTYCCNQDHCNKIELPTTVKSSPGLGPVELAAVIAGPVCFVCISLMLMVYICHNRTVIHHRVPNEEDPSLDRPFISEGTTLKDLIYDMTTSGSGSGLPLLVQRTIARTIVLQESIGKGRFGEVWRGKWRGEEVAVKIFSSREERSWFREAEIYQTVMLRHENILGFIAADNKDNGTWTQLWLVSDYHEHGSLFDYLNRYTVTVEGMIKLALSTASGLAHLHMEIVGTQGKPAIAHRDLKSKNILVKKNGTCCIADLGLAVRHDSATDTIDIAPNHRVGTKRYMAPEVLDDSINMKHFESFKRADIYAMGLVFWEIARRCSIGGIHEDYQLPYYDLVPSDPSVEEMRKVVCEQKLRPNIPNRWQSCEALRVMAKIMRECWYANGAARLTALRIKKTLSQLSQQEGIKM
protocolNotes: ADP-GLO kinase assay, biochemical ALK5 assay
runConditions: pIC50 converted to pKi using the Cheng-Prusoff equation, ATP at Km, or high ATP (30-fold Km) for very potent compounds, 25° C.
Protocol: The enzymatic activity of compounds of the present invention was monitored measuring the formation of ADP using the ADP-GLO Kinases assay. […] After an incubation of 120 min, the reaction was stopped, and ADP production detected with ADP-Glo kit according to manufacturer's indications. […] After an incubation of 60 min, the kinase reaction was stopped, and ADP production detected with ADP-Glo kit according to manufacturer's indications. […]
pKi: −log10 of the molar value.

Prompt: Quote human ALK5 (recombinant TGF β1 N-term GST-tagged, 80-end) (Homo sapiens, UniProt P36897) pKi for entry "CN1CCC(c2nnc(-c3cc(Cl)ccc3F)cc2Nc2ccnc(NC(=O)CCN3CCN(C)CC3)c2)CC1" .
Response: 8.50 to 9.00

Prompt: Quote human ALK5 (recombinant TGF β1 N-term GST-tagged, 80-end) (Homo sapiens, UniProt P36897) pKi for entry "CN1CCN(CCC(=O)Nc2cc(Nc3cc(-c4cc(Cl)ccc4F)nnc3C3=CCNCC3)ccn2)CC1" .
Response: 8.50 to 9.00

Prompt: Quote human ALK5 (recombinant TGF β1 N-term GST-tagged, 80-end) (Homo sapiens, UniProt P36897) pKi for entry "CN1CCN(CCC(=O)Nc2cc(Nc3cc(-c4cc(Cl)ccc4F)nnc3C3CNC3)ccn2)CC1" .
Response: 9.10 to 9.90

Prompt: Quote human ALK5 (recombinant TGF β1 N-term GST-tagged, 80-end) (Homo sapiens, UniProt P36897) pKi for entry "CN1CCN(CCC(=O)Nc2cc(Nc3cc(-c4cc(Cl)ccc4F)nnc3C3CCNCC3)ccn2)CC1" .
Response: 9.10 to 9.90

Prompt: Quote human ALK5 (recombinant TGF β1 N-term GST-tagged, 80-end) (Homo sapiens, UniProt P36897) pKi for entry CN1CCN(CCC(=O)Nc2cc(Nc3cc(-c4cc(Cl)ccc4F)nnc3C3CCCS3)ccn2)CC1 (stereo not drawn) .
Response: 9.10 to 9.90

Prompt: Quote human ALK5 (recombinant TGF β1 N-term GST-tagged, 80-end) (Homo sapiens, UniProt P36897) pKi for entry CN1CCN(CCC(=O)Nc2cc(Nc3cc(-c4cc(Cl)ccc4F)nnc3C3CCC(=O)S3)ccn2)CC1 (stereo not drawn) .
Response: 9.10 to 9.90

Prompt: Quote human ALK5 (recombinant TGF β1 N-term GST-tagged, 80-end) (Homo sapiens, UniProt P36897) pKi for entry CN1CCN(CCC(=O)Nc2cc(Nc3cc(-c4cc(Cl)ccc4F)nnc3C3CCN3)ccn2)CC1 (stereo not drawn) .
Response: 9.10 to 9.90

Prompt: Quote human ALK5 (recombinant TGF β1 N-term GST-tagged, 80-end) (Homo sapiens, UniProt P36897) pKi for entry "CN1CC=C(c2nnc(-c3cc(Cl)ccc3F)cc2Nc2ccnc(NC(=O)CCN3CCN(C)CC3)c2)CC1" .
Response: 8.50 to 9.00

Prompt: Quote human ALK5 (recombinant TGF β1 N-term GST-tagged, 80-end) (Homo sapiens, UniProt P36897) pKi for entry "CN1CCN(CCC(=O)Nc2cc(Nc3cc(-c4cc(Cl)ccc4F)nnc3C3CN(C(=O)OC(C)(C)C)C3)ccn2)CC1" .
Response: 9.10 to 9.90

Data provenance is patent US20250100997A1.
